For each of the compounds below, state its Papp.
Experiment: Permeability was determined
Assay type: ADME
Conditions: not told; read-out: Permeability (converted)
Output spec: scalar in ×10⁻⁶ cm/s, unitless text.

# input Query Papp for CCN(CC)CCN(Cc1ccc(-c2ccc(Cl)cc2)cc1)C(=O)Cn1cc(C)c(=O)nc1SCc1ccc(F)cc1
# output 27.8

# input Query Papp for CCN(CC)CCN(Cc1ccc(-c2ccc(C(F)(F)F)cc2)cc1)C(=O)Cn1cc(C)c(=O)nc1SCc1ccc(F)cc1
# output 22.2

# input Query Papp for CCN(CC)CCN(Cc1ccc(-c2ccc(C(F)(F)F)cc2)cc1)C(=O)Cn1cc(Cl)c(=O)nc1SCc1ccc(F)cc1
# output 30.6

# input Query Papp for CCCc1cn(CC(=O)N(CCN(CC)CC)Cc2ccc(-c3ccc(C(F)(F)F)cc3)cc2)c(SCc2ccc(F)cc2)nc1=O
# output 36.1

# input Query Papp for CCN(CC)CCN(Cc1ccc(-c2ccc(C(F)(F)F)cc2)cc1)C(=O)Cn1cc([S+](C)[O-])c(=O)nc1SCc1ccc(F)cc1 (configuration not stated)
# output 1.67

# input Query Papp for CCc1cn(CC(=O)N(CCN(CC)CC)Cc2ccc(-c3ccc(C(F)(F)F)cc3)cc2)c(SCc2ccc(F)cc2)nc1=O
# output 27.8

# input Query Papp for CCN(CC)CCN(Cc1ccc(-c2ccc(C(F)(F)F)cc2)cc1)C(=O)Cn1cc(CCO)c(=O)nc1SCc1ccc(F)cc1
# output 0.833

# input Query Papp for CCN(CC)CCN(Cc1ccc(-c2ccc(C(F)(F)F)cc2)cc1)C(=O)Cn1cc(Br)c(=O)nc1SCc1ccc(F)cc1
# output 25

# input Query Papp for CCN(CC)CCN(Cc1ccc(-c2ccc(C(F)(F)F)cc2)cc1)C(=O)Cn1cc(OC)c(=O)nc1SCc1ccc(F)cc1
# output 6.94

# input Query Papp for CCc1cn(CC(=O)N(CCN(CC)CC)Cc2ccc(-c3ccc(Cl)cc3)cc2)c(SCc2ccc(F)cc2)nc1=O
# output 33.3

# input Query Papp for CCN(CC)CCN(Cc1ccc(-c2ccc(C(F)(F)F)cc2)cc1)C(=O)Cn1cc(CO)c(=O)nc1SCc1ccc(F)cc1
# output 0.556

# input Query Papp for CCN(CC)CCN(Cc1ccc(-c2ccc(C(F)(F)F)cc2)cc1)C(=O)Cn1cc(SC)c(=O)nc1SCc1ccc(F)cc1
# output 8.33
